- method: chemical genetic growth profiling, strain panel (AID 1159580);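 note: tested at 20 µM; growth read once vehicle control cultures reached saturation at 30 °C; 1 = growth at the plate median or of vehicle wells; lower values mean less growth of the strain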
- assay conditions: S. cerevisiae deletion strains, growth OD, locus YKL193C, strain SDS22, stronger effect = lower value
Screen size: about 5,500 compounds; about 2,000 (36%) were called active. Roughly 18% stayed inconclusive and do not appear here. This is one part of the list.
recorded metric: normalized growth
Answers are plain numbers.

Here's what some known entries look like.
CCOC(=O)NC(=S)NC12CC3CC(CC(C3)C1)C2 | 0.982
COCCOc1ccccc1NC(=S)SCCSC(=S)Nc1ccccc1OCCOC | 0.985
O=S(=O)(Nc1cc(C(F)(F)F)ccc1F)c1cc(C(F)(F)F)ccc1Cl | 0.938
CCCCCc1ccc(S(=O)(=O)Nc2ccc3c(c2)C(=O)OC3)cc1 | 0.978
O=C1/C(=C/c2c(F)cccc2Cl)Cc2ccccc21 | 0.961

normalized growth for C/C(=N/OC(=O)Nc1ccc(Cl)cc1)c1ccc2c(c1)CCO2 ?
0.941
